# procedure-summary: AUC (0 to infinity) in dog at 5 mg/kg, po
# Format: ADME, organism-based, Canis lupus familiaris
# Design: time infinity, dose 5 mg/kg, route oral
# particulars: plasma
reported-property: AUC(0-inf) (µM·h)
Kindly answer with a numeric value in µM·h, unit omitted.

Query block: Could you share which AUC(0-inf) value was measured for C=C[C@@H]1C[C@]1(NC(=O)[C@@H]1C[C@@H](Oc2cc(-c3csc(NC(=O)C(C)C)n3)nc3c(Br)c(OC)ccc23)CN1C(=O)[C@@H](NC(=O)OC1CCCC1)C(C)(C)C)C(=O)O ?
Result block: 14

###

# procedure-summary: Tmax in rat at 5 mg/kg, po
# Type: ADME, organism-based
# Parameters: dose 5 mg/kg, route oral
# particulars: in vivo
reported-property: Tmax (h)
Kindly answer with a numeric value in h, unit omitted.

Query block: Could you share which Tmax value was measured for C=C[C@@H]1C[C@]1(NC(=O)[C@@H]1C[C@@H](Oc2cc(-c3csc(NC(=O)C(C)C)n3)nc3c(Br)c(OC)ccc23)CN1C(=O)[C@@H](NC(=O)OC1CCCC1)C(C)(C)C)C(=O)O ?
Result block: 1.5

These measurements were taken from ChEMBL document CHEMBL1671761.
